TEST_DETAILS: Cmax in CD1 mouse plasma at 30 mg/kg, po measured up to 24 hrs by LC-MS/MS analysis
Assay type: ADME, organism-based
Parameters: route oral, dose 30 mg/kg, time <=24
MEASUREMENT_KIND: Cmax (ng/mL)
Please respond with the number in ng/mL and leave the unit unwritten.

Req: Recorded Cmax for CCc1ccc(Cl)cc1-n1c(C=C(C)C)c(C(=O)N2CCNCC2)cc(-c2nc(-c3ccc(Cl)cc3)cs2)c1=O , please?
Resp: 2010

====

Reported values of inhibition for individual entries
System: Isocitrate dehydrogenase [NADP] cytoplasmic (Homo sapiens), O75874 [R132H]
Sequence (O75874 whole entry R132H): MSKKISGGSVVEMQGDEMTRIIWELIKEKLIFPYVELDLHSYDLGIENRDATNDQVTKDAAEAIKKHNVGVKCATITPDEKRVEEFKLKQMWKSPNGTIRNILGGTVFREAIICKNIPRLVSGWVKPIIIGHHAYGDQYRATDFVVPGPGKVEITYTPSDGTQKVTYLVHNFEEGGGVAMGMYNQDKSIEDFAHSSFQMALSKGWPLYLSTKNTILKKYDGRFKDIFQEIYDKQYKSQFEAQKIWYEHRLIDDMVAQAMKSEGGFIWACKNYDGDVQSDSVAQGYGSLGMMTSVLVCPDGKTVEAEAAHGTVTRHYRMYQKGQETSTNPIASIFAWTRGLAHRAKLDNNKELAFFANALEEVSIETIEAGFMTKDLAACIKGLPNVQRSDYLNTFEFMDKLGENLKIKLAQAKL
TEST_DETAILS: Inhibition of IDH1 R132H mutant (unknown origin) assessed as reduction in NADPH consumption using alpha-KG as substrate at 38 uM incubated for 5 mins by diaphorase/resazurin-coupled system relative to control
Please respond with the number in % and leave the unit unwritten.

Here are 4 compounds together with their reported answers.
> print(dat)
                               query.smiles  unit.tag  recorded.number
1  COc1ccc(OC)c(-n2c3c(cc(-n4cnc(-c5ccccc5)c4)c2=O)C(=O)CC(C)(C)C3)c1         %               59
2  CCc1cccc(CC)c1-n1c2c(cc(-c3nc(-c4ccc(Cl)cc4)cs3)c1=O)C(=O)CC(C)(C)C2         %               89
3  CCc1cccc(CC)c1-n1c(C(C)C)c(C(=O)N2CCNCC2)cc(-c2nc(-c3ccc(Cl)cc3)cs2)c1=O         %              102
4  CCOc1ccc(OCC)c(-n2c3c(cc(-c4nc(-c5ccc(Cl)cc5)cs4)c2=O)C(=O)CC(C)(C)C3)c1         %               85

Here is another compound to look at.
Req: Reported inhibition for Isocitrate dehydrogenase [NADP] cytoplasmic (Homo sapiens), O75874 [R132H], given CCc1cccc(CC)c1-n1c(C)c(C(=O)NCC(N)=O)cc(-c2nc(-c3ccc(Cl)cc3)cs2)c1=O ?
Resp: 105
